test: RP, GL Sciences Inertsil ODS-4, 150 × 2.1 mm, 3 µm, 40 °C, 0.3 mL/min, estimated dead time 1.1 min; A: water + 5 mM ammonium acetate; B: methanol + 5 mM ammonium acetate; gradient (min/%B) 0/5 30/95 50/95; conditions: stereoisomer not certain
Please go through the items and note down their LC retention time.
Answers are plain numbers, in min.

As a guide, the following entries are already answered.
- Compound: "COC=C(C(=O)OC)c1ccccc1Oc1cc(Oc2ccccc2C#N)ncn1"
  Unit name: "min"
  LC retention time: 26.1
- Compound: "COC(=O)NN=Cc1c[n+]([O-])c2ccccc2[n+]1[O-]"
  Unit name: "min"
  LC retention time: 15
- Compound: "CN(C)CCCN1c2ccccc2CCc2ccccc21"
  Unit name: "min"
  LC retention time: 26

Could you report LC retention time for every entry in the following list?
1. Cc1cc(C2CC2)nc(Nc2ccccc2)n1
2. CC(C)NCC(O)COc1ccc(COCCOC(C)C)cc1 (stereo unspecified)
3. COc1ccc2c(c1)C13CCCCC1C(C2)N(C)CC3 (stereo unspecified)
4. Nc1ccc(S(=O)(=O)Nc2ncccn2)cc1
5. CC(C)NCC(O)c1ccc(NS(C)(=O)=O)cc1 (stereo unspecified)
6. CC(=O)CCCCn1c(=O)c2c(ncn2C)n(C)c1=O
7. OCCN(CCO)c1nc(N2CCCCC2)c2nc(N(CCO)CCO)nc(N3CCCCC3)c2n1
8. COc1ccc(CCN(C)CCCC(C#N)(c2ccc(OC)c(OC)c2)C(C)C)cc1OC (stereo unspecified)

Result:
[29.8, 20, 24.2, 8.05, 9.08, 17.4, 28.4, 26.7]

Data origin: the RepoRT retention time repository (doi:10.1007/s11356-017-9929-x)
